Taken from PubChem BioAssay AID624267.

- TESTED_SYSTEM: Receptor-interacting serine/threonine-protein kinase 2 (Homo sapiens) (UniProt O43353)
- Sequence (O43353 whole entry, looked up): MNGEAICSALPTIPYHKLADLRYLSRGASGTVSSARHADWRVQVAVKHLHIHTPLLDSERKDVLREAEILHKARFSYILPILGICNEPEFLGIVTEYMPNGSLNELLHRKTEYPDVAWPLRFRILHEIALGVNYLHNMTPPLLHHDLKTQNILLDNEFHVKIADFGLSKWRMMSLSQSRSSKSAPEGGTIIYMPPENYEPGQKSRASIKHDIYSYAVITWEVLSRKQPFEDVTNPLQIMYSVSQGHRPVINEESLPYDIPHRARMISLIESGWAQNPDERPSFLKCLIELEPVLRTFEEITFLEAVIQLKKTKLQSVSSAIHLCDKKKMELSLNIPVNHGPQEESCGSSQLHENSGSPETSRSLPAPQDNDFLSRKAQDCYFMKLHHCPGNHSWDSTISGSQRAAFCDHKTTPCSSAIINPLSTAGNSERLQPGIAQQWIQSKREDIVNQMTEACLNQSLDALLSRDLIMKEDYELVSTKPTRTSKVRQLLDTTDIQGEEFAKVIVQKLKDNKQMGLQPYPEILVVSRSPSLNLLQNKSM
- TEST_DESCRIPTION: inhibitors of RIPK2 association with NOD2 – fluorescence, CHO cells, BLA complementation, primary screen (AID 624267);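 also: 0% = vehicle only and 100% = reference blocker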
- CONDITION_INFO: CHO BLA complementation NOD2-RIPK2, CCF4 ratio; at 4.98 µM
The campaign covered roughly 360,000 compounds. About 1,400 (0.39%) were called active. Rule as the data show it: active = inhibition above about 21%; inactive = the rest. This is one part of a sample in which actives are shown more often than they occur.
Outcomes: active, inactive

> print(dat)
                                    molecule  assigned.category
 1  O=C1C(C=NCC2CCCO2)=C(O)c2ccccc21 (stereo unspecified)           inactive
 2  COCCCNC(=O)Cn1c(=O)n(Cc2ccccc2Cl)c(=O)c2cc(OC)c(OC)cc21           inactive
 3  CC(=O)Oc1cccc(N2C(=O)CC(Nc3ccc(N4CCOCC4)cc3)C2=O)c1 (stereo unspecified)           inactive
 4  COc1ccc(C[C@H]2CN3C(=NC[C@H]3C)N2CCNC(=O)CCC2CCCCC2)cc1           inactive
 5  CCCc1cc(=O)oc2c(C)c(OCC(=O)Nc3ccccn3)ccc12           inactive
 6  Cc1cccc(N2Cc3ccccc3C2=NC(=O)c2ccc(Cl)nc2)c1           inactive
 7            COc1ccc(C)cc1NC(=S)Nc1ccccc1SC           inactive
 8  NC(Cc1ccccc1)c1csc(Nc2cc(Oc3ccccc3)ncn2)n1 (stereo unspecified)           inactive
 9  O=C1c2cccc3c([N+](=O)[O-])ccc(c23)C(=O)N1CC1CCCO1 (stereo unspecified)             active
10            Cc1cccc(-n2ncc(Cl)c(Cl)c2=O)c1             active
11          COC(=O)Cc1cc(=O)oc2c(C)c(O)ccc12             active

---

- TESTED_SYSTEM: Receptor-interacting serine/threonine-protein kinase 2 (Homo sapiens)
- TEST_DESCRIPTION: inhibitors of RIPK2 association with NOD2 – fluorescence, CHO cells, BLA complementation, primary screen (AID 624267);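 also: 0% = vehicle only and 100% = reference blocker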
- CONDITION_INFO: CHO BLA complementation NOD2-RIPK2, CCF4 ratio; at 4.98 µM
In all, about 360,000 compounds went through this assay and about 1,400 (0.39%) were called active. No stated cut-off is given here; in the data, active means inhibition above about 21%; inactive means the rest. The full list was thinned out, with actives kept by preference.
Outcomes: TRUE for active, FALSE for inactive

> print(dat)
                                    molecule  assigned.category
 1  COCCN(C(=O)CSCc1ccc(C)cc1)c1c(N)n(CC(C)C)c(=O)[nH]c1=O              FALSE
 2  C=CC(COCc1ccccc1)N(Cc1ccccc1)S(=O)(=O)c1ccccc1Br (stereo unspecified)              FALSE
 3  Cc1ccc(N(C(=O)c2sc(C)nc2C)C(C(=O)NC(C)(C)C)c2ccncc2)cc1 (stereo unspecified)              FALSE
 4  O=C(CCN1CCc2ccccc2C(O)(c2ccccc2)C1)c1ccc2c(c1)OCCO2 (stereo unspecified)               TRUE
 5  CC(C)c1cc(C(=O)N/N=C/c2ccoc2)c(O)c(C(C)C)c1              FALSE
 6  Cc1cc2oc3ccc(NCCC4CCCN4C)cc3c(=O)c2cc1C (stereo unspecified)               TRUE
 7                 Cc1nnc(SCC(=O)NC2CCCC2)s1              FALSE
 8  CN1CCC[C@@H]1CCO[C@](C)(c1ccccc1)c1ccc(Cl)cc1              FALSE
 9  CC(C)(C)c1nnc(NC(=O)C2c3ccccc3Oc3ccccc32)s1              FALSE
10  CCC1Sc2ccc(S(=O)(=O)CCC(=O)NCc3cccs3)cc2NC1=O (stereo unspecified)              FALSE
11  CCc1cccc(C)c1NS(=O)(=O)c1c(C)nc2sccn2c1=O              FALSE
12  COc1ccc(C(C(=O)NC(C)(C)C)N(C(=O)Cn2nnc3ccccc32)c2ccc(C(C)=O)cc2)cc1O (stereo unspecified)              FALSE
13  CCOC(=O)C1(Cc2cccc(OC)c2)CCN(Cc2csc(C(C)=O)c2)CC1              FALSE
14  Cc1ccc(NC(=O)CCCNC(=O)c2ccc(Cl)cc2)cc1S(=O)(=O)N1CCOCC1              FALSE
15      O=C1C(Cl)=C(Oc2ccccc2)C(=O)c2ccccc21               TRUE
16  CC(=O)c1cc(C#N)c(N2CC(C)OC(C)C2)nc1C (stereo unspecified)              FALSE
17  Cc1ccc(C(=O)CN2C(=O)NC3(CCOc4ccccc43)C2=O)s1 (stereo unspecified)              FALSE
18             C/C(CC(C)C)=N\Oc1nc(C)cc(C)n1              FALSE
19  COc1ccc(C2=CC(c3cccc(OC)c3)n3nnnc3N2)cc1 (stereo unspecified)               TRUE
20  Nc1c(C(=O)c2cccs2)sc2nsc(SCCN3CCCCC3)c12               TRUE
21  O=C(CN1C(=O)NC2(CCOc3ccccc32)C1=O)Nc1cccc([N+](=O)[O-])c1 (stereo unspecified)              FALSE
22        Cc1c(-c2ccccc2)cn2c1-c1ccc(C)n1CC2              FALSE
23  COc1cc2c(cc1OC)C1C(=O)c3cc(OS(C)(=O)=O)c(OC)cc3C1N(C)C2=O (stereo unspecified)              FALSE
24  O=[N+]([O-])/C=C/c1ccc2c(ccn2Cc2ccccc2)c1               TRUE
25  CCCCN(CCCC)CCCNC(=O)CN1C(=O)COc2ccc(S(=O)(=O)N3CCC(C)CC3)cc21              FALSE
26  O=C(Nc1ccccc1)C1CC(=O)n2c(nc3ccccc32)N1 (stereo unspecified)              FALSE
27  COc1cccc(CC(=O)OCC(=O)NCc2ccc3c(c2)OCO3)c1              FALSE
28  O[C@H]1C[C@H](c2ccc(Cl)cc2)N(Cc2cccs2)C[C@@H]1n1cc(C2CC2)nn1               TRUE
29  O=C(CN1CCN(S(=O)(=O)c2ccc(F)cc2)CC1)NC1CC1              FALSE
30  Cc1nn(C)c(C)c1C(C)NC(=O)c1ccc(OC2CCN(Cc3ccccn3)CC2)cc1 (stereo unspecified)              FALSE
31                 Cc1nnc(SCC(=O)Nn2cnnc2)s1               TRUE
32  O=C(c1cccc(-n2cccc2)c1)N1CCN(S(=O)(=O)c2ccc(F)cc2)CC1              FALSE
33  CN1CCN(CCCNC(=O)c2ccc(/C=C3\Oc4ccccc4N(Cc4ccc(Cl)cc4)C3=O)cc2)CC1               TRUE
34  COC(=O)[C@]1(C)CCC[C@@]2(C)C3CC[C@]4(OC(C)=O)C[C@@]3(CCC21)CC4=NO (stereo partly specified)              FALSE
35  O=C(CNc1ccccc1N1CCCC1=O)Nc1cc(Cl)ccc1-n1cncn1              FALSE
36  O=[N+]([O-])c1c(NCCO)cc(Sc2nc3ccccc3s2)c2nonc12               TRUE

---

- TESTED_SYSTEM: Receptor-interacting serine/threonine-protein kinase 2 (Homo sapiens)
- TEST_DESCRIPTION: inhibitors of RIPK2 association with NOD2 – fluorescence, CHO cells, BLA complementation, primary screen (AID 624267);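 also: 0% = vehicle only and 100% = reference blocker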
- CONDITION_INFO: CHO BLA complementation NOD2-RIPK2, CCF4 ratio; at 4.98 µM; hits give high values
The whole screen tested about 360,000 compounds, of which about 1,400 (0.39%) were called active. This excerpt belongs to a sample that is enriched for actives.
Reported inhibition by item:
MEASURE_NAME: inhibition (%)

> print(dat)
                                   compound                             tested.system  measure.name  recorded.value
1  CC(=O)Nc1ccc(CNc2nc(NCCN(C)C)nc3cc(-c4ccccc4)sc23)cc1  Receptor-interacting serine/threonine-protein kinase 2 (Homo sapiens)    inhibition            11.1
2  Cc1cccc(NC(=O)Cn2c(=O)n(Cc3ccccc3)c(=O)c3c(C)c(C)sc32)c1  Receptor-interacting serine/threonine-protein kinase 2 (Homo sapiens)    inhibition           -1.85
3  Cc1cccc(CS(=O)(=O)c2ncc(Cl)c(C(=O)Nc3ccc(F)cc3)n2)c1  Receptor-interacting serine/threonine-protein kinase 2 (Homo sapiens)    inhibition            95.7
4  CC(C)(C)c1ccc(CCC2OCC(CN3CCOCC3)O2)cc1 (centres undefined)  Receptor-interacting serine/threonine-protein kinase 2 (Homo sapiens)    inhibition           -4.96
